Entries annotated with measured pKi
# TESTED SYSTEM: PMN LTB4 receptor (Homo sapiens)
# Construct: endogenous in cells
# Sequence (Q15722 whole entry): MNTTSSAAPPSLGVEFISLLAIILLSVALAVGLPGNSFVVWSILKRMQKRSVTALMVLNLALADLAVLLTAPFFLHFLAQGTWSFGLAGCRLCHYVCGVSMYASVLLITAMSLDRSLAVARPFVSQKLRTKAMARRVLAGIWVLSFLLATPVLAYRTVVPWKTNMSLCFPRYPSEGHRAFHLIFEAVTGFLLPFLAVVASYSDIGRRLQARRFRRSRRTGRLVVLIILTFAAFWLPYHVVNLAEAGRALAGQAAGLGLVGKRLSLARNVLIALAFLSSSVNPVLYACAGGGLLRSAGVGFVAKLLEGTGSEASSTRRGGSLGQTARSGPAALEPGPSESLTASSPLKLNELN
# PROTOCOL TEXT: LTB4 Human Neutrophil (PMN) Binding Assay
# RUN PARAMETERS: read-out: Ki, affinity for LTB4 (receptor)
# From the text: LTB4 Human Neutrophil (PMN) Binding Assay LTB4 for the PMN LTB4 receptor.
pKi: −log10 of the molar value.

| COMPOUND | pKi |
| --- | --- |
| CCc1cc(-c2ccc(F)cc2)c(O)cc1OCCCCC(C)(C)CNC(=O)c1ccc(N/N=C/c2ccccc2)nc1 | 8.10 |
| O=C(CCCCCOc1cc(-c2ccc3c(c2)OCO3)cc(-c2ccccc2)n1)NC(Cc1ccc(O)cc1)C(=O)O (stereo not drawn) | 7.39 |
| O=C(CCCCCOc1cc(-c2ccc3c(c2)OCO3)cc(-c2ccccc2)n1)NC(Cc1ccc(OCCCNC(=O)c2ccc(N/N=C/c3ccccc3S(=O)(=O)O)nc2)cc1)C(=O)O (stereo not drawn) | 7.28 |

Values compiled from patent US6416733B1.
